- procedure summary: Cmax in Sprague-Dawley rat at 10 mg/kg, po and measured after 24 hrs by LC-MS/MS analysis
- Format: ADME, organism-based
- Design: dose 10 mg/kg, time 24 hrs, route po
- condition parameters: in vivo
In this section, each of the compounds is paired with its reported Cmax.
observed property: Cmax (ng/mL)

- C=CC(=O)Nc1cc(Nc2ncc(Br)c(Nc3ccc4ccn(C)c4c3)n2)c(OC)cc1N1CCN(C)CC1: 636
- C=CC(=O)Nc1cc(Nc2ncc(Br)c(Nc3ccc4c(c3)CCC4)n2)c(OC)cc1N1CCN(C)CC1: 452

* * *

The following are reported IC50 results, target or system UniProt:P00533.
Sequence (P00533 whole entry): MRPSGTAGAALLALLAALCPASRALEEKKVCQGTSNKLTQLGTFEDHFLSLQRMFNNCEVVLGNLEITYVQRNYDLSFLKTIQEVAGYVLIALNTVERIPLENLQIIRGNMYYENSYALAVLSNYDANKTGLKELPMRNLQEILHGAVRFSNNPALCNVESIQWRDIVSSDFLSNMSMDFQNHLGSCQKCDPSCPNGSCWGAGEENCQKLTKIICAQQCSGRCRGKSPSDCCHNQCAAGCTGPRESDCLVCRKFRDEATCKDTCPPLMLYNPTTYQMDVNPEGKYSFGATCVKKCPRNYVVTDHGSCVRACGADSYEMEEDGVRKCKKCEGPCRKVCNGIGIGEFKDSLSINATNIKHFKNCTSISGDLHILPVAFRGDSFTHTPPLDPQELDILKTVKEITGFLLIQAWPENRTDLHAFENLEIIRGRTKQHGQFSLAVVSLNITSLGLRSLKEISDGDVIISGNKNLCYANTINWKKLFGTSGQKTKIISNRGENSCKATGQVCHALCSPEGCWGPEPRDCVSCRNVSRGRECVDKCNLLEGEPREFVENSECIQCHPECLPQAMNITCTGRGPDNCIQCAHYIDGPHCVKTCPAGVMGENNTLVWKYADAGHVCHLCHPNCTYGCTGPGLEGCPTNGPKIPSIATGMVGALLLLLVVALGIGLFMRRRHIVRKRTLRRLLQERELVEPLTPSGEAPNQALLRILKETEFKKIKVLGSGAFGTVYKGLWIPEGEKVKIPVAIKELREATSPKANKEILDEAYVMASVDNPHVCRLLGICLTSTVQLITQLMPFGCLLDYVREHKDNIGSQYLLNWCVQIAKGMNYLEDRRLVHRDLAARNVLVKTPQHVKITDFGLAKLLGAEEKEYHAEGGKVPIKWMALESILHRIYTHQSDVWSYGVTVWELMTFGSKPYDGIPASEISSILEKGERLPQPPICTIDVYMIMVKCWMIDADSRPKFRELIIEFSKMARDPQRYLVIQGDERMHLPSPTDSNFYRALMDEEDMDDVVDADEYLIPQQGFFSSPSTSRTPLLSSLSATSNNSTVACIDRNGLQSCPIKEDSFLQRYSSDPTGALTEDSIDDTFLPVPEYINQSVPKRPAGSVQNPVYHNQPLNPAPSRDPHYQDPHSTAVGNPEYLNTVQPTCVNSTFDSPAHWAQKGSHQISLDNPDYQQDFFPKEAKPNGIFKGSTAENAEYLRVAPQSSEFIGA
observed property: IC50 (nM)

* CN1CCN(c2ccc(Nc3ncc(Br)c(Nc4ccc5c(c4)CCC5)n3)cc2)CC1 | 6800
* CN1CCN(c2ccc(Nc3ncc(Br)c(Nc4ccc5cn[nH]c5c4)n3)cc2)CC1 | 1100
* C=CC(=O)Nc1cc(Nc2ncc(Br)c(Nc3ccc4ccn(C)c4c3)n2)c(OC)cc1N1CCN(C)CC1 | 280
* CN1CCN(c2ccc(Nc3ncc(Br)c(Nc4ccc5[nH]c(Cc6cccc(F)c6)cc5c4)n3)cc2)CC1 | 325
* CN1CCN(c2ccc(Nc3ncc(Br)c(Nc4ccc5ccn(C)c5c4)n3)cc2)CC1 | 1300
* C=CC(=O)Nc1cc(Nc2ncc(Br)c(Nc3ccc4c(c3)CCC4)n2)c(OC)cc1N1CCN(C)CC1 | 203
* CC(=O)N1CCc2ccc(Nc3nc(Nc4ccc(N5CCN(C)CC5)cc4)ncc3Br)cc21 | 5700
* C=CC(=O)Nc1cc(Nc2ncc(Br)c(Nc3ccc4c(c3)CCC4)n2)ccc1N1CCN(C)CC1 | 466
* CN1CCN(c2ccc(Nc3ncc(Br)c(Nc4ccc5[nH]ncc5c4)n3)cc2)CC1 | 393
* C=CC(=O)Nc1cc(Nc2ncc(Br)c(Nc3ccc4c(c3)CCC4)n2)ccc1N(C)CCN(C)C | 26.2
* CN1CCN(c2ccc(Nc3ncc(Br)c(Nc4ccc5nccnc5c4)n3)cc2)CC1 | 408
